Known pKd of a selection of compounds
molecular target: His-HAO1 (recombinant glycolate oxidase, 2-hydroxyacid oxidase) (Homo sapiens); experiment: SPR
pKd: −log10 of the molar value.

smilesStr | testedTarget | pKd
O=C(O)c1nn[nH]c1Oc1ccc(-c2ccc(C3CC(F)(F)C3)cc2)cc1 | His-HAO1 (recombinant glycolate oxidase, 2-hydroxyacid oxidase) (Homo sapiens) | 8.36
NS(=O)(=O)c1ccc(Cc2c(-c3ccc(F)c(-c4ccc(Oc5nn[nH]c5C(=O)O)cc4)c3)nn(-c3nc(C(=O)O)cs3)c2CC2CC2)cc1F | His-HAO1 (recombinant glycolate oxidase, 2-hydroxyacid oxidase) (Homo sapiens) | 8.41

----------
Target: His-HAO1 (recombinant glycolate oxidase, 2-hydroxyacid oxidase) (Homo sapiens)
Sequence (Q9UJM8 1-370): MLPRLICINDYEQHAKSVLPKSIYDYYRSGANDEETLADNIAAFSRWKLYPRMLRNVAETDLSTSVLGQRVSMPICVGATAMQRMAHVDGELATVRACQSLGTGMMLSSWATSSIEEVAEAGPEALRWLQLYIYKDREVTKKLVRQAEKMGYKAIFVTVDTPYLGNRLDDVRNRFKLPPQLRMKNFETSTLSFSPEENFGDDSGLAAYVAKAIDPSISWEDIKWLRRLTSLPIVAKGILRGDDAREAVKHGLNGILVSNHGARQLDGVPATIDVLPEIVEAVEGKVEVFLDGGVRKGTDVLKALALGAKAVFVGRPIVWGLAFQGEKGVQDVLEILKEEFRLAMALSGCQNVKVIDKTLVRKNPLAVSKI
Assay: DSF thermal stabilisation, SYPRO Orange

smilesStr | EC50
NS(=O)(=O)c1ccc(Cc2c(-c3ccc(F)c(-c4ccc(Oc5nn[nH]c5C(=O)O)cc4)c3)nn(-c3nc(C(=O)O)cs3)c2CC2CC2)cc1F | 5.01 µM
O=C(O)c1nn[nH]c1Oc1ccc(-c2ccc(C3CC(F)(F)C3)cc2)cc1 | 3.98 µM
